# SUBJECT_OF_TEST: purified bovine adrenal G6PDH (Bos taurus, UniProt F1MMK2)
# Sequence (F1MMK2 31-70): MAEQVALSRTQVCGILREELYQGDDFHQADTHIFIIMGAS
# Sequence (F1MMK2 101-575): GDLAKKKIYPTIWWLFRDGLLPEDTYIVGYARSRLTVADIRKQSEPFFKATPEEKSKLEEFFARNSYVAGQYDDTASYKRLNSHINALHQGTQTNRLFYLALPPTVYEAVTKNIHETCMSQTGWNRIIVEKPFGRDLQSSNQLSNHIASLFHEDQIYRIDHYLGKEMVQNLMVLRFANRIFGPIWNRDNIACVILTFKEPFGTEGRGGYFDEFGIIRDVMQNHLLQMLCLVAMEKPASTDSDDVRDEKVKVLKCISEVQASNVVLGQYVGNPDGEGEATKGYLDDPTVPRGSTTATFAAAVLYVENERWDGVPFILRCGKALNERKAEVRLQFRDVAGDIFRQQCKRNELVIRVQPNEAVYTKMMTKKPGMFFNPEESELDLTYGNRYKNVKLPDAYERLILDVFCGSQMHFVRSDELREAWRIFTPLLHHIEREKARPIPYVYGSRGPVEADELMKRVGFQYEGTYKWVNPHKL
# PROTOCOL_DESCRIPTION: G6PDH inhibition test
# Type: biochemical
# TEST_SETTINGS: 10^-5 M; individual determinations; read-out: Percent Inhibition of G6PDH
METRIC: inhibition at 10 µM (%)
Report the figure in % without appending any unit label.

COMPOUND	MEASUREMENT_UNITS	inhibition at 10 µM
C[C@]12CC[C@H](O)CC1=CC[C@@H]1[C@@H]2CC[C@]2(C)C(=O)CC[C@@H]12 [DHEA, Dehydroepiandrosterone]	%	53
C[C@]12CCCC[C@@H]1CC[C@@H]1[C@@H]2CC[C@]2(C)C(=O)[C@H](O)C[C@@H]12 [A]	%	94
C[C@H]1C[C@H]2[C@@H]3CC=C4CCCC[C@]4(C)[C@H]3CC[C@]2(C)C1=O [D]	%	44
C[C@]12CCCC[C@@H]1CC[C@@H]1[C@@H]2CC[C@]2(C)C(=O)[C@H](F)C[C@@H]12 [B]	%	96
C[C@]12CCCCC1=CC[C@@H]1[C@@H]2CC[C@]2(C)C(=O)[C@](C)(F)C[C@@H]12 [F]	%	82

Query: Report inhibition at 10 µM for C[C@@H]1C[C@H]2[C@@H]3CC=C4CCCC[C@]4(C)[C@H]3CC[C@]2(C)C1=O [C] please.
Result: 54

Query: Report inhibition at 10 µM for C[C@]12CCCCC1=CC[C@@H]1[C@@H]2CC[C@]2(C)C(=O)[C@H](O)C[C@@H]12 [Compound 8353] please.
Result: 77

Query: Report inhibition at 10 µM for C[C@]12CCCCC1=CC[C@@H]1[C@@H]2CC[C@]2(C)C(=O)[C@H](F)C[C@@H]12 [Compound 8354] please.
Result: 79

---

# SUBJECT_OF_TEST: UniProtKB F1MMK2
# PROTOCOL_DESCRIPTION: G6PDH inhibition test
# Type: biochemical
# TEST_SETTINGS: 10^-5 M; individual determinations
# From the text: The compound listed below are screened as inhibitors of purified bovine adrenal G6PDH activity as one predictor of cancer preventive action. The assay for testing the inhibition of purified bovine adrenal G6PDH is according to the procedure by Oertell, G. W. and Rebelein, I. in Biochem. Biophys. Acta, 184, 459-460 (1969).
Reported values of Percent Inhibition of G6PDH for individual entries
Report the figure in % without appending any unit label.

MOLECULE	VALUE_MEASURED
C[C@]12CCCCC1=CC[C@@H]1[C@@H]2CC[C@]2(C)C(=O)[C@H](F)C[C@@H]12 [Compound 8354]	83
C[C@]12CC[C@H](O)CC1=CC[C@@H]1[C@@H]2CC[C@]2(C)C(=O)CC[C@@H]12 [DHEA, Dehydroepiandrosterone]	57
C[C@H]1C[C@H]2[C@@H]3CC=C4CCCC[C@]4(C)[C@H]3CC[C@]2(C)C1=O [D]	47

# next molecule below
Query: Report Percent Inhibition of G6PDH for C[C@@H]1C[C@H]2[C@@H]3CC=C4CCCC[C@]4(C)[C@H]3CC[C@]2(C)C1=O [C] please.
Result: 52

---

# SUBJECT_OF_TEST: purified bovine adrenal G6PDH (Bos taurus, UniProt F1MMK2)
# PROTOCOL_DESCRIPTION: G6PDH inhibition test
# Type: biochemical
# TEST_SETTINGS: 10^-6 M; individual determinations
Classify by measured Percent Inhibition of G6PDH: Fulfilled if it is equal to or exceeds 70%, Not fulfilled if it is smaller.

C[C@]12CCCC[C@@H]1CC[C@@H]1[C@@H]2CC[C@]2(C)C(=O)[C@H](F)C[C@@H]12 Fulfilled

Query: Decide: Percent Inhibition of G6PDH of `C[C@@H]1C[C@H]2[C@@H]3CC=C4CCCC[C@]4(C)[C@H]3CC[C@]2(C)C1=O` >= 70%?
Result: Not fulfilled

Query: Decide: Percent Inhibition of G6PDH of `C[C@H]1C[C@H]2[C@@H]3CC=C4CCCC[C@]4(C)[C@H]3CC[C@]2(C)C1=O` >= 70%?
Result: Not fulfilled

Query: Decide: Percent Inhibition of G6PDH of `C[C@]12CCCCC1=CC[C@@H]1[C@@H]2CC[C@]2(C)C(=O)[C@H](F)C[C@@H]12` >= 70%?
Result: Fulfilled
